experiment: Plasma clearance in rat at 0.25 mg/kg, iv; format: ADME, organism-based; design: dose 0.25 mg/kg, route intravenous
quantityMeasured: clearance (mL/min/kg)
Report as a plain number; the unit mL/min/kg is understood.

Please review the entries below; each comes with its answer.
{"structureSmiles": "[2H]C1([2H])C[C@@H]2[C@H](O1)OC([2H])([2H])[C@]2([2H])OC(=O)N[C@@H](Cc1ccc(OC([2H])([2H])c2csc(C)n2)cc1)[C@]([2H])(O)CN(C([2H])([2H])C([2H])(C([2H])([2H])[2H])C([2H])([2H])[2H])S(=O)(=O)c1ccc2c(c1)OC([2H])([2H])O2", "clearance (mL/min/kg)": 59}
{"structureSmiles": "[2H]C1([2H])Oc2ccc(S(=O)(=O)N(C[C@@]([2H])(O)[C@H](Cc3ccc(OC([2H])([2H])c4csc(C)n4)cc3)NC(=O)O[C@@]3([2H])CO[C@@]4([2H])OCC[C@H]43)C([2H])([2H])C([2H])(C([2H])([2H])[2H])C([2H])([2H])[2H])cc2O1", "clearance (mL/min/kg)": 64}

# ---- query molecule ----
Record request: clearance value, item Cc1nc(COc2ccc(C[C@H](NC(=O)O[C@H]3CO[C@H]4OCC[C@H]43)[C@H](O)CN(CC(C)C)S(=O)(=O)c3ccc4c(c3)OCO4)cc2)cs1 65

###

assay: Plasma clearance in rat at 0.25 mg/kg, iv co-administered with 4 mg/kg of ritonavir; format: ADME, organism-based
quantityMeasured: clearance (mL/min/kg)
Kindly answer with a numeric value in mL/min/kg, unit omitted.

Any idea what its clearance is? The molecule is Cc1nc(COc2ccc(C[C@H](NC(=O)O[C@H]3CO[C@H]4OCC[C@H]43)[C@H](O)CN(CC(C)C)S(=O)(=O)c3ccc4c(c3)OCO4)cc2)cs1 [BRECANAVIR] 5.4

Each recorded value in this set is attributed to ChEMBL document CHEMBL2375288.
